Molecular target: μ opioid receptor (MOR) (Homo sapiens, UniProt P35372)
Construct: expressed in transfected cells
Sequence (P35372 whole entry): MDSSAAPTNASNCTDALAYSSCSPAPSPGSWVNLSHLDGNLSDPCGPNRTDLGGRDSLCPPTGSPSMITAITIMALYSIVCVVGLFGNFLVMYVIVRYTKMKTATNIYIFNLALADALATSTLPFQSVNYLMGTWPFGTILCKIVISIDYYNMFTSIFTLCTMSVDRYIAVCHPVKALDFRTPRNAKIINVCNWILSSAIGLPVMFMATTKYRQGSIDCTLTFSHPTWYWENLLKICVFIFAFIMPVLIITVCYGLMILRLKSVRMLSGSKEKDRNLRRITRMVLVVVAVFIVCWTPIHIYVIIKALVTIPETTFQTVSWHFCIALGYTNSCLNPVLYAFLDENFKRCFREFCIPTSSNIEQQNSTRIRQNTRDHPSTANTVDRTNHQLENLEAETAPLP
Assay: cell-based
Format: cell-based
Details: Series 1 EC50
measuredProperty: EC50 (µM)
Use µM as the unit, but write only the number.

COC(=O)[C@@H]1C[C@H](OC(=O)c2cccnc2)C(=O)[C@H]2[C@@]1(C)CC[C@H]1C(=O)O[C@H](c3ccoc3)C[C@]21C [Series 1 Entry 18] ... 0.24
COC(=O)[C@@H]1C[C@H](OC(=O)c2cccc(Cl)c2)C(=O)[C@H]2[C@@]1(C)CC[C@H]1C(=O)O[C@H](c3ccoc3)C[C@]21C [Series 1 Entry 6] ... 2.4
COC(=O)[C@@H]1C[C@H](OC(=O)c2ccccc2C)C(=O)[C@H]2[C@@]1(C)CC[C@H]1C(=O)O[C@H](c3ccoc3)C[C@]21C [Series 1 Entry 11] ... 1.6
COC(=O)[C@@H]1C[C@H](OC(=O)c2cccc(OC)c2)C(=O)[C@H]2[C@@]1(C)CC[C@H]1C(=O)O[C@H](c3ccoc3)C[C@]21C [Series 1 Entry 15] ... 0.33
COC(=O)[C@@H]1C[C@H](OC(=O)c2ccc(Cl)cc2)C(=O)[C@H]2[C@@]1(C)CC[C@H]1C(=O)O[C@H](c3ccoc3)C[C@]21C [Series 1 Entry 7] ... 0.7
COC(=O)[C@@H]1C[C@H](OC(=O)c2ccccc2)C(=O)[C@H]2[C@@]1(C)CC[C@H]1C(=O)O[C@H](c3ccoc3)C[C@]21C [Compound 2, herkinorin, reference compound] ... 0.042

Q: EC50 for COC(=O)[C@@H]1C[C@H](OC(=O)c2cccc(F)c2)C(=O)[C@H]2[C@@]1(C)CC[C@H]1C(=O)O[C@H](c3ccoc3)C[C@]21C [Series 1 Entry 9] ?
Ans: 0.46

Q: EC50 for COC(=O)[C@@H]1C[C@H](OC(=O)c2ccccc2OC)C(=O)[C@H]2[C@@]1(C)CC[C@H]1C(=O)O[C@H](c3ccoc3)C[C@]21C [Series 1 Entry 14] ?
Ans: 3.3

====

Reported pEC50 values are given for each entry in this list.
Molecular target: κ opioid receptor (KOR) (Homo sapiens, UniProt P41145)
Construct: expressed in transfected cells
Sequence (P41145 whole entry): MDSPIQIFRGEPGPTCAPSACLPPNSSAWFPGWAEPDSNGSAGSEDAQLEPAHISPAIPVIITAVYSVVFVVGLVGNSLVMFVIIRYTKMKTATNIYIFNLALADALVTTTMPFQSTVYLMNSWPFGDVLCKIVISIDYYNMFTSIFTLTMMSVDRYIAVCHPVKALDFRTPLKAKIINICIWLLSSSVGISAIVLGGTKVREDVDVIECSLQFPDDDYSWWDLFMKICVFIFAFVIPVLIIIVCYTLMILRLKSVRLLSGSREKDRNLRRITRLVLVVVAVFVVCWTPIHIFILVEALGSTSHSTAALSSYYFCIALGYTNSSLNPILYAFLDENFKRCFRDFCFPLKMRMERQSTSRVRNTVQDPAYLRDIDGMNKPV
Assay: cell-based
Type: cell-based
pEC50: −log10 of the molar value.

COC(=O)[C@@H]1C[C@H](NC(=O)c2ccccc2)C(=O)[C@H]2[C@@]1(C)CC[C@H]1C(=O)O[C@H](c3ccoc3)C[C@]21C [Compound 3, reference compound] ... < 5.00

Q: pEC50 for COC(=O)[C@@H]1C=C(OC(=O)c2ccccc2)C(=O)[C@H]2[C@@]1(C)CC[C@H]1C(=O)O[C@H](c3ccoc3)C[C@]21C [Compound 5] ?
Ans: < 5.00

====

Reported EC50 values are given for each entry in this list.
Molecular target: μ opioid receptor (MOR) (Homo sapiens, UniProt P35372)
Construct: expressed in transfected cells
Assay: cell-based
Type: cell-based
Settings: read-out: Series 2 EC50
Use nM as the unit, but write only the number.

Some solved cases for reference:
COC(=O)[C@@H]1C=C(OC(=O)c2ccc([N+](=O)[O-])cc2)C(=O)[C@H]2[C@@]1(C)CC[C@H]1C(=O)O[C@H](c3ccoc3)C[C@]21C ... 31
COC(=O)[C@@H]1C=C(OC(=O)c2ccc(C)cc2)C(=O)[C@H]2[C@@]1(C)CC[C@H]1C(=O)O[C@H](c3ccoc3)C[C@]21C ... 21.8
COC(=O)[C@@H]1C=C(OC(=O)c2cccc(OC)c2)C(=O)[C@H]2[C@@]1(C)CC[C@H]1C(=O)O[C@H](c3ccoc3)C[C@]21C ... 11

Q: EC50 for COC(=O)[C@@H]1C=C(OC(=O)c2ccc(OC)cc2)C(=O)[C@H]2[C@@]1(C)CC[C@H]1C(=O)O[C@H](c3ccoc3)C[C@]21C ?
Ans: 8

Data provenance is patent US10125129B2.
